Origin of measurements: ChEMBL document CHEMBL3045484

testedOn: Tyrosine-protein phosphatase non-receptor type 1 (Rattus norvegicus)
Sequence (whole entry): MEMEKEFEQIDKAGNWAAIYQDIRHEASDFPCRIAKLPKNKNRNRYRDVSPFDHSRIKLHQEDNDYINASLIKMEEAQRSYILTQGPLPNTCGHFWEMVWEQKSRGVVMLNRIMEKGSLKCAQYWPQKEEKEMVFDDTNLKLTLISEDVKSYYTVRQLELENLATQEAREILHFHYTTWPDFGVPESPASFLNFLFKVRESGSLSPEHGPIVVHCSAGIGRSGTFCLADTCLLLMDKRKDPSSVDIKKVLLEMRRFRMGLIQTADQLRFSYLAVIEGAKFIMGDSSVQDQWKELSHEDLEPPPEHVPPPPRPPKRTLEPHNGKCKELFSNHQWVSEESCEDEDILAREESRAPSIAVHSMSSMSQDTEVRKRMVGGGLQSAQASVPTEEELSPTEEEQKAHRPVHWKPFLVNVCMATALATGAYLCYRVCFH
assayName: Inhibition of PTP1B in Rattus norvegicus (rat) L6 cells assessed as increase in 2-deoxy-D-[U-14C]-glucose uptake at 50 uM after 18 hr relative to control
Type: cell-based
What inhibition was measured for each of the following?
API: value field is a number in %; no unit string.

Incoming: Return reported inhibition for target or system Tyrosine-protein phosphatase non-receptor type 1 (Rattus norvegicus), item O=C(CSc1nc2ccccc2[nH]1)Nc1cc(C(=O)O)ccc1Cl .
Outgoing: 28.7

Incoming: // fetch inhibition; item: O=C(CSc1nc2ccccc2s1)Nc1cc(C(=O)O)ccc1Cl ; system: Tyrosine-protein phosphatase non-receptor type 1 (Rattus norvegicus)
Outgoing: 28.7

Incoming: Check Tyrosine-protein phosphatase non-receptor type 1 (Rattus norvegicus) data and give inhibition for O=C(CSc1nc2c([N+](=O)[O-])cccc2[nH]1)Nc1cc(C(=O)O)ccc1Cl .
Outgoing: 37.6

Incoming: Write down the reported inhibition (system: Tyrosine-protein phosphatase non-receptor type 1 (Rattus norvegicus)) of O=C(CSc1nc2ccccc2[nH]1)Nc1ccc(C(=O)O)cc1
Outgoing: 22.5

Incoming: Provide measured inhibition on Tyrosine-protein phosphatase non-receptor type 1 (Rattus norvegicus) for COc1cccc2[nH]c(SCC(=O)Nc3cc(C(=O)O)ccc3Cl)nc12 please.
Outgoing: 26.6

Incoming: Specify the recorded inhibition for O=C(CSc1nc2ccccc2[nH]1)Nc1cc(C(=O)O)ccc1O , system: Tyrosine-protein phosphatase non-receptor type 1 (Rattus norvegicus).
Outgoing: 58.6

Incoming: Write down the reported inhibition (system: Tyrosine-protein phosphatase non-receptor type 1 (Rattus norvegicus)) of Cc1cccc2[nH]c(SCC(=O)Nc3cc(C(=O)O)ccc3Cl)nc12
Outgoing: 31.4

Incoming: Look up Tyrosine-protein phosphatase non-receptor type 1 (Rattus norvegicus) data: inhibition of O=C(CSc1nc2ccccc2s1)Nc1cccc(C(=O)O)c1 , then report it.
Outgoing: 59.2

Incoming: Please indicate recorded inhibition of O=C(CSc1nc2ccccc2s1)Nc1ccc(C(=O)O)cc1 measured with Tyrosine-protein phosphatase non-receptor type 1 (Rattus norvegicus).
Outgoing: 39.6

Incoming: Recall the reported inhibition of O=C(CSc1nc2ccccc2s1)Nc1cc(C(=O)O)ccc1O when tested on Tyrosine-protein phosphatase non-receptor type 1 (Rattus norvegicus).
Outgoing: 29.2

* * *

testedOn: Tyrosine-protein phosphatase non-receptor type 1 (Homo sapiens)
Sequence (whole entry): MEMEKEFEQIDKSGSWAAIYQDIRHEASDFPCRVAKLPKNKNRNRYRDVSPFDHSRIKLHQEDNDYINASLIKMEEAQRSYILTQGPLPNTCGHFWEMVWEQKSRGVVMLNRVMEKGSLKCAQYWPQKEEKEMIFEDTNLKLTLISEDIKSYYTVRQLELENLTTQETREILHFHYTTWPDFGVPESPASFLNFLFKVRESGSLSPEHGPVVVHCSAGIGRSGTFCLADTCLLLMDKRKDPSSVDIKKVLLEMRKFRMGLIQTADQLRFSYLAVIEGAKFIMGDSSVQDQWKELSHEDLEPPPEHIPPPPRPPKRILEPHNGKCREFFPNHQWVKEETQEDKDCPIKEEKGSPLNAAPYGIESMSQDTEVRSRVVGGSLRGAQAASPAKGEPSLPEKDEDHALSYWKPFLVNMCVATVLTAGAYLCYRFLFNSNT
assayName: Inhibition of Homo sapiens (human) recombinant PTP1B assessed as decrease in free phosphate release at 10 uM by malachite staining relative to control
readoutName: inhibition (%)
Please state the figure in %; there is no need to write the unit.

Incoming: Return inhibition (reported value) for this compound: O=C(CSc1nc2ccccc2[nH]1)Nc1cc(C(=O)O)ccc1Cl
Outgoing: 35.8

Incoming: For O=C(CSc1nc2ccccc2s1)Nc1cc(C(=O)O)ccc1Cl , write its inhibition.
Outgoing: 56.2

Incoming: Consider the compound O=C(CSc1nc2ccccc2s1)Nc1cc(C(=O)O)ccc1O . State its measured inhibition.
Outgoing: 53.9

Incoming: Tell us which inhibition value is on record for O=C(CSc1nc2ccccc2[nH]1)Nc1cc(C(=O)O)ccc1O
Outgoing: 23.2

Incoming: Look up inhibition of COc1cccc2[nH]c(SCC(=O)Nc3cc(C(=O)O)ccc3Cl)nc12 and report it.
Outgoing: 62.7

Incoming: Give the reported inhibition for this compound. O=C(CSc1nc2ccccc2[nH]1)Nc1ccc(C(=O)O)cc1
Outgoing: 18.7

Incoming: # return recorded inhibition for input O=C(CSc1nc2c([N+](=O)[O-])cccc2[nH]1)Nc1cc(C(=O)O)ccc1Cl
Outgoing: 36.6

Incoming: Give recorded inhibition. O=C(CSc1nc2ccccc2s1)Nc1ccc(C(=O)O)cc1
Outgoing: 66.4

Incoming: Annotate the compound O=C(CSc1nc2ccccc2s1)Nc1cccc(C(=O)O)c1 with its measured inhibition.
Outgoing: 24.2

Incoming: Consider the compound Cc1cccc2[nH]c(SCC(=O)Nc3cc(C(=O)O)ccc3Cl)nc12 and give its recorded inhibition.
Outgoing: 20.9
